Each entry below lists one item and its recorded TGI value.
- Test system: SW-620 colon
- test_summary: NCI tumour cell line growth inhibition, 48 h

Below, each entry is followed by its recorded TGI result.
>>> df
                                   compound  test_result
0  c1ccc2c(c1)N=c1ccccc1=P21c2ccccc2Nc2ccccc21        13 µM
1      COC(=O)/C=C1\C(=O)N(C(C)=O)c2ccccc21     > 100 µM
2  CC(C)=CCC[C@@H](C)c1c(O)c(O)c(C)c2nc3ccccc3nc12     > 100 µM
3  CS(=O)(=O)c1ccc(C2=C(c3ccccc3)C(=O)OC2)cc1     > 100 µM
4                O=C(O)CSc1ccn(Cc2ccccc2)c1     > 100 µM

As a next step, examine the compound that follows.
TGI reading for CCOC(=O)C(=C=Cc1cccs1)C(=O)c1ccccc1 : 31.9 µM

---

Parameter: GI50. Scope: all listed entries.
- Tested on: OVCAR-5 ovarian
- test_summary: NCI tumour cell line growth inhibition, 48 h
Where a SMILES comes first, the peptide text is derived from it. [ ]: non-standard residue; d: D form. The star is where a group is joined. ξ: configuration not given here. 4Abz = Nc1ccc(C(=O)O)cc1; ξL = CC(C)CC(N)C(=O)O; NHOH = ON*

molecule	GI50
COC(=O)C1=C(O)C(C(=O)OC)[C@@]2(O)[C@@H](C(=O)OC)C(c3ccc(OC(=O)C(Cc4ccccc4)NC(C)=O)cc3)C[C@@H]1[C@@H]2C(=O)OC (some centres not stated)	35 µM

Entry CC(=N\O)/C(C)=N/O.CC(=N\O)/C(C)=N/O.[Pd] — recorded GI50 = 6.47 µM

Given item C=C1c2c(C)nn(-c3ccccc3)c2N(C)C23C[C@@H]1C1(C)c4c(C)nn(-c5ccccc5)c4N(C)C(C)(C[C@H]12)C3 (some centres not stated) , the value recorded as its GI50 is > 100 µM

response.value for CCCCCCCC(=O)SCC/C=C/[C@@H]1CC(=O)NCc2cccc(n2)CN(Cc2ccc(Cl)cc2)CC(=O)N[C@@H](C(C)C)C(=O)O1 (field: GI50) = 9.98 µM

Reported GI50 ( CC(C)CC(NC(=O)[C@@H]1CCCN1C(=O)CNC(=O)c1ccc(N)cc1)C(=O)N[C@H](C)C(=O)NO (some centres not stated) (H-[4Abz]GP[ξL][dA]-{NHOH}) ) = > 100 µM

Consider COc1cc(C2CC(c3ccc(C)cc3)=NN2C(C)=O)ccc1Oc1ccnc2cc(Cl)ccc12 (configuration not stated) . Its measured GI50 is > 100 µM

Memo: O=C(CCCCCn1c2ccccc2c2c3c(c4c5ccccc5[nH]c4c21)C(=O)N(O)C3=O)N1CCOCC1 , reported GI50: 3.49 µM

---

- Test system: SF-268 CNS
- test_summary: NCI tumour cell line growth inhibition, 48 h
attribute_measured: TGI

compound	measurement_target	TGI
COc1c(Cl)ccc(Cl)c1-c1nnc(-c2c(Cl)c(Cl)c(Cl)c(Cl)c2-c2nc3ccc(C(=O)c4ccccc4)cc3[nH]2)o1	SF-268 CNS	> 100 µM
Nc1nc(Cl)cc2c1ncn2C1OC(CO)C(O)C1O (centres undefined)	SF-268 CNS	> 100 µM
Nc1ncnc2c1ncn2C1OC(CO)C(O)C1O (centres undefined)	SF-268 CNS	> 450 µM
O=C(O)/C=C/C(=O)Nc1cccc2c1-c1ccccc1C2=O	SF-268 CNS	> 100 µM
CN1CCN(c2nc(NCCNc3ccnc4cc(Cl)ccc34)c3ccccc3n2)CC1	SF-268 CNS	13.1 µM

For COc1ccc(-n2cc(-c3ccc(Cl)cc3)[nH]c2=S)cc1Cl the compound record lists TGI as 76.5 µM

---

- System: SNB-75 CNS
- test_summary: NCI tumour cell line growth inhibition, 48 h
// reported TGI per item

Study these solved cases before continuing.
In [3]: df
Out[3]:
                                   molecule  measurement_target  attribute_measured  test_result
0     Cn1c(=O)c2[nH]c(Nc3ccccc3)nc2n(C)c1=O          SNB-75 CNS                 TGI      > 10 µM
1  CC(=O)Nc1ccc(S(=O)(=O)/N=c2/sc(S(N)(=O)=O)nn2C)cc1          SNB-75 CNS                 TGI     > 100 µM
2  Cc1cccc2c1NC(c1c(C)[nH]c3ccccc13)C2 (stereo unspecified)          SNB-75 CNS                 TGI     > 100 µM
3  COC(=O)C1=C(SC)SC2(C(=O)OC)C3C=C(C)C4C(N13)C42C(=O)OC (stereo unspecified)          SNB-75 CNS                 TGI     > 100 µM
4  COC1=C(C(=O)OC(C)(C)C)C23CCCCC2(C(C(=O)OC(C)(C)C)=C(OC)C3C(=O)OC(C)(C)C)C1C(=O)OC(C)(C)C (stereo unspecified)          SNB-75 CNS                 TGI     > 100 µM

Read the next record carefully.
The molecule listed as NC(N)=Nc1nc2cc(N)ccc2o1 shows TGI equal to > 100 µM

---

- Tested on: A549 NSCLC
- test_summary: NCI tumour cell line growth inhibition, 48 h
attribute_measured: GI50

Measured GI50, O=C1/C(=C/c2ccc(F)cc2)CN(Cc2cn(CCNc3ccnc4cc(Cl)ccc34)nn2)C/C1=C\c1ccc(F)cc1 : 1.88 µM

---

- Test system: OVCAR-5 ovarian
- test_summary: NCI tumour cell line growth inhibition, 48 h
attribute_measured: TGI

Guide cases for TGI, answers given:
molecule	TGI
CCOC(=O)Cn1c(=O)c2cc(C)cc3c(Cl)nc4c(OC)c(OC)cc1c4c32	> 100 µM
CCCCc1ccc(Nc2nc(N)c3[nH]cnc3n2)cc1	73.5 µM
O=C(Nc1ccc(Cl)cc1Cl)c1c/c(=N\O)c2ccc(O)cc2o1	> 100 µM

Now look at this one.
Query CSCC[C@@H](NC(=O)[C@H](CC(C)C)NC(=O)C(Cc1cnc[nH]1)NC(=O)CNC(=O)[C@@H](NC(=O)[C@H](C)NC(=O)[C@H](Cc1cn(C=O)c2ccccc12)NC(=O)[C@H](CCC(N)=O)NC(=O)[C@@H](N)CC(N)=O)C(C)C)C(N)=O (some centres undefined) yields TGI of > 100 µM

---

- Test system: SK-MEL-28 melanoma
- test_summary: NCI tumour cell line growth inhibition, 48 h
Measured TGI, listed per entry for reference.

Some compounds with recorded TGI:
In [3]: df
Out[3]:
                                   compound  attribute_measured  test_result
0  O=C(OCc1ccccc1[N+](=O)[O-])N1c2ccccc2[C@@]23O[C@]24CCC[C@H]3C#C/C=C\C#C[C@H]14                 TGI     > 100 µM
1  c1cc(C2O[C@H]3CCCN3[C@@H]2c2ccncc2)ccn1 (stereo not given in full)                 TGI     > 100 µM
2               NCCCCN(CCCN)C(=O)OCc1ccccc1                 TGI     > 100 µM
3                   COC(=O)c1ccc2n[se]nc2c1                 TGI     > 100 µM
4  Clc1ccc2nc3c(c(-c4ccccc4)nn3-c3ccccc3)c(-c3ccccc3)c2c1                 TGI     > 100 µM
5  C=CCn1c(-c2ccc(N=NNc3ccc(-c4n[nH]c(=S)n4CC=C)cc3)cc2)n[nH]c1=S                 TGI     > 100 µM
6  CCC(C)CNC1=C(NC(C)=O)C(=O)c2ccccc2C1=O (stereo not given)                 TGI     > 100 µM
7  CS(=O)(=O)c1ccc(C2=C(c3ccccc3)C(=O)OC2)cc1                 TGI     > 100 µM

// TGI value for Cc1cc(C)c2c(=O)n(CC(O)CN3CCN(c4ncccn4)CC3)sc2n1 (stereo not given) : 36.6 µM

// TGI lookup, compound = Cc1cc(CC(O)(C(F)(F)F)C(F)(F)F)cc(CC(O)(C(F)(F)F)C(F)(F)F)n1 , result: 9.54 µM

---

- System: SK-OV-3 ovarian
- test_summary: NCI tumour cell line growth inhibition, 48 h
attribute_measured: TGI

Take a look at these entries with their results.
compound	measurement_target	TGI
COC(=O)C1=C(O)C(C(=O)OC)[C@@]2(O)[C@@H](C(=O)OC)C(c3ccc(OC(=O)C(Cc4ccccc4)NC(C)=O)cc3)C[C@@H]1[C@@H]2C(=O)OC (stereo partly specified)	SK-OV-3 ovarian	> 100 µM
O=C(c1ccc(Cl)cc1)N(C(=S)N1CCN(c2ccccc2)CC1)C1CCCCC1	SK-OV-3 ovarian	> 100 µM
Cn1c(=O)c2[nH]c(Nc3ccccc3)nc2n(C)c1=O	SK-OV-3 ovarian	> 10 µM
CS(=O)(=O)c1ccc(C2=C(c3ccccc3)C(=O)OC2)cc1	SK-OV-3 ovarian	> 100 µM
CC(=O)c1c[nH]c2ccc(-c3ccnc(Nc4ccc(NC(=O)c5cccc(F)c5)c(CN5CCOCC5)c4)n3)cc12	SK-OV-3 ovarian	> 100 µM
Cc1cc(C)cc(NC(=O)CCC(=O)C2CCC/C2=N\NC(=O)C(=O)NN)c1 (stereo unspecified)	SK-OV-3 ovarian	> 100 µM
Clc1ccc2nc3c(c(-c4ccccc4)nn3-c3ccccc3)c(-c3ccccc3)c2c1	SK-OV-3 ovarian	> 100 µM
COc1cc(OC)c(Oc2cccc(OC)c2OC)c(OC)c1	SK-OV-3 ovarian	> 100 µM

Data point: COc1ccccc1NC(=O)CC(=O)NNCC(=O)Nc1nc(-c2ccccc2)cs1 ; TGI = > 100 µM

// TGI lookup, compound = COc1cccc(-n2cnc3c(N/N=C/c4ccncc4)ncnc32)c1 , result: > 23.7 µM

Query O=C(CCCCCn1c2ccccc2c2c3c(c4c5ccccc5[nH]c4c21)C(=O)N(O)C3=O)N1CCOCC1 yields TGI of 5.81 µM
